Target: human PPARγ (Homo sapiens)
Construct: human PPAR 167-468 (PPARα), 138-440 (NUC-1) and 174-475 (PPARY) amino acid regions
Sequence (P37231 204-505): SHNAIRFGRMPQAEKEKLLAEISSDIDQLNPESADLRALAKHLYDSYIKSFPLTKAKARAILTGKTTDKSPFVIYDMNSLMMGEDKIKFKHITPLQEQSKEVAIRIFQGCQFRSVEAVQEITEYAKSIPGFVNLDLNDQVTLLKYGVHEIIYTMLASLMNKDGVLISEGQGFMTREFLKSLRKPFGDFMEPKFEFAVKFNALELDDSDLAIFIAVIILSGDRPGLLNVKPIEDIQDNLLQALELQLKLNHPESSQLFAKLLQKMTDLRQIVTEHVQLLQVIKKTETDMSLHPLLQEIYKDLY
Experiment: Measurement of transcriptional activity (GAL4-PPAR LBD chimera, PLAP reporter, CV-1 cells)
Settings: PLAP activity 24 hours after addition of the compound, read-out: Transcriptional activities EC50 PRAR γ
Method: Measurement of Transcriptional Activity As the reporter gene, PLAP (Placental Alkaline Phosphatase) was used, and this was ligated downstream of a TK promoter containing a 5-copy GAL4 DNA binding element to construct a vector. As host cells, CV-1 (ATCC CCL-70D) was used. […] The PLAC activity was determined after adding 50 μl assay buffer and 50 μl chemoluminescence substrate to 10 μl culture supernatant and incubating the mixture at room temperature for 1 hour.
assay metric: log10(EC50) (log10 of the value in nM)
A difference of one corresponds to tenfold EC50; all values are log10 with EC50 in nM.

// solved cases for log10(EC50) follow
COc1ccc(CC(OC(C)(C)C)C(=O)O)cc1C(=O)NCc1ccc(C(F)(F)F)cc1 (stereo not drawn)
2.34
COc1ccc(CC(OC(C)C)C(=O)O)cc1C(=O)NCc1ccc(C(F)(F)F)cc1 (stereo not drawn)
2.58
COc1ccc(C[C@H](OC(C)C)C(=O)O)cc1CNC(=O)c1ccc(Cl)cc1Cl [Example 37e)]
1.20
CCCOC(Cc1ccc(OC)c(C(=O)NCc2ccc(C(F)(F)F)cc2)c1)C(=O)O (stereo not drawn)
2.87

Alright, here's another molecule for you.
Given the entry COc1ccc(C[C@H](OC(C)C)C(=O)O)cc1CNC(=O)c1ccc(C(F)(F)F)cc1F [Example 36g)] , what log10(EC50) was observed with human PPARγ (Homo sapiens)?
1.67
